Catalogue of IC50 readings, one per entry.
- Test system: MDA-MB-231
- protocol_summary: Cytotoxicity against human MDA-MB-231 cells after 48 hrs by MTT assay
- Assay type: functional, cell-based
- recorded_conditions: MDA-MB-231, 48 h
parameter: IC50 (µM)

> print(dat)
                                   molecule  subject.of.test  parameter  units.label  value.prefix  reported.measurement
1  CCCC[n+]1ccc2c([nH]c3ccccc32)c1C(=O)/C=C/c1ccc2c(c1)OCO2.[Br-]       MDA-MB-231       IC50           µM             >                   100
2  COc1ccc(/C=C/C(=O)c2c3[nH]c4ccccc4c3cc[n+]2Cc2ccccc2)cc1.[Br-]       MDA-MB-231       IC50           µM             =                  52.2
3  COc1cccc2c1C(=O)c1c(O)c3c(c(O)c1C2=O)C[C@@](O)(C(=O)CO)C[C@@H]3O[C@H]1C[C@H](N)[C@H](O)[C@H](C)O1 [DOXORUBICIN]       MDA-MB-231       IC50           µM             =                  7.85
4  O=C(/C=C/c1ccccc1)c1nccc2c1[nH]c1ccccc12       MDA-MB-231       IC50           µM             =                  71.1
5  COc1ccc(/C=C/C(=O)c2nccc3c2[nH]c2ccccc23)cc1       MDA-MB-231       IC50           µM             >                   100
6  COc1cc(/C=C/C(=O)c2c3[nH]c4ccccc4c3cc[n+]2Cc2ccccc2)cc(OC)c1OC.[Br-]       MDA-MB-231       IC50           µM             =                    16
